Tested on: Leishmania donovani
test-details: Antileishmanial activity against Leishmania donovani 9515 promastigotes assessed as inhibition of parasite growth incubated for 72 hrs by resazurin dye based assay
Format: functional, organism-based
experimental-context: Leishmania donovani, 9515, 72 h
pIC50: −log10 of the molar value.
reported-endpoint: pIC50

compound="C[C@@H]1CC[C@H]2C(C)(COC(=O)[C@H]3CCCN3C(=O)C(F)(F)F)O[C@@H]3O[C@@]4(C)CC[C@@H]1[C@]32OO4 (stereo not given in full)" system="Leishmania donovani" measurement_qualifier== result_value=4.42
compound=COc1ccc2nc3cc(Cl)ccc3c(N3CCN(CCO[C@H]4O[C@@H]5O[C@@]6(C)CC[C@H]7[C@H](C)CC[C@@H]([C@H]4C)[C@@]57OO6)CC3)c2c1 system="Leishmania donovani" measurement_qualifier== result_value=4.49
compound="C[C@@H]1CC[C@H]2C(C)(COC(=O)c3ccc(F)cc3)O[C@@H]3O[C@@]4(C)CC[C@@H]1[C@]32OO4 (stereo not given in full)" system="Leishmania donovani" measurement_qualifier== result_value=5.09
compound="C[C@@H]1CC[C@H]2C(C)(COC(=O)c3ccc([N+](=O)[O-])cc3)O[C@@H]3O[C@@]4(C)CC[C@@H]1[C@]32OO4 (stereo not given in full)" system="Leishmania donovani" measurement_qualifier== result_value=5.37
compound=COc1ccc2nc3cc(Cl)ccc3c(N3CCNCC3)c2c1 system="Leishmania donovani" measurement_qualifier== result_value=5.49
compound="CCCCCC(=O)OCC1(C)O[C@@H]2O[C@@]3(C)CC[C@H]4[C@H](C)CC[C@@H]1[C@@]24OO3 (stereo not given in full)" system="Leishmania donovani" measurement_qualifier== result_value=4.64
compound=COc1ccc2nc3cc(Cl)ccc3c(NCCN)c2c1 system="Leishmania donovani" measurement_qualifier== result_value=5.55
compound="C[C@@H]1CC[C@H]2C(C)(COC(=O)c3cc4ccccc4o3)O[C@@H]3O[C@@]4(C)CC[C@@H]1[C@]32OO4 (stereo not given in full)" system="Leishmania donovani" measurement_qualifier== result_value=4.99
compound="C[C@@H]1CC[C@H]2C(C)(COC(=O)c3cccs3)O[C@@H]3O[C@@]4(C)CC[C@@H]1[C@]32OO4 (stereo not given in full)" system="Leishmania donovani" measurement_qualifier=< result_value=4.00
compound="CCCC(=O)OCC1(C)O[C@@H]2O[C@@]3(C)CC[C@H]4[C@H](C)CC[C@@H]1[C@@]24OO3 (stereo not given in full)" system="Leishmania donovani" measurement_qualifier== result_value=4.35
compound=COc1ccc2nc3cc(Cl)ccc3c(NCCCN(C)CCO[C@H]3O[C@@H]4O[C@@]5(C)CC[C@H]6[C@H](C)CC[C@@H]([C@H]3C)[C@@]46OO5)c2c1 system="Leishmania donovani" measurement_qualifier== result_value=6.77
compound="C[C@@H]1CC[C@H]2C(C)(C=O)O[C@@H]3O[C@@]4(C)CC[C@@H]1[C@]32OO4 (stereo not given in full)" system="Leishmania donovani" measurement_qualifier== result_value=5.59
compound="COc1ccc2nc3cc(Cl)ccc3c(N3CCN(CCO[C@H]4O[C@@H]5O[C@@]6(C)CC[C@H]7[C@H](C)CC[C@@H]([C@H]4C)[C@@]57OO6)C(C)C3)c2c1 (stereo not given in full)" system="Leishmania donovani" measurement_qualifier== result_value=5.80
compound=CNCCCNc1c2ccc(Cl)cc2nc2ccc(OC)cc12 system="Leishmania donovani" measurement_qualifier== result_value=5.48
compound=C[C@H]1[C@@H](O)O[C@@H]2O[C@@]3(C)CC[C@H]4[C@H](C)CC[C@@H]1[C@@]24OO3 system="Leishmania donovani" measurement_qualifier== result_value=4.51
compound=COc1ccc2nc3cc(Cl)ccc3c(NCCNCCO[C@H]3O[C@@H]4O[C@@]5(C)CC[C@H]6[C@H](C)CC[C@@H]([C@H]3C)[C@@]46OO5)c2c1 system="Leishmania donovani" measurement_qualifier== result_value=6.49
compound=CO[C@H]1O[C@@H]2O[C@@]3(C)CC[C@H]4[C@H](C)CC[C@@H]([C@H]1C)[C@@]24OO3 system="Leishmania donovani" measurement_qualifier== result_value=4.04
compound="CC(=O)OCC1(C)O[C@@H]2O[C@@]3(C)CC[C@H]4[C@H](C)CC[C@@H]1[C@@]24OO3 (stereo not given in full)" system="Leishmania donovani" measurement_qualifier=< result_value=4.00
compound="C[C@@H]1CC[C@H]2C(C)(CO)O[C@@H]3O[C@@]4(C)CC[C@@H]1[C@]32OO4 (stereo not given in full)" system="Leishmania donovani" measurement_qualifier=< result_value=4.00
compound="C[C@@H]1CC[C@H]2C(C)(COC(=O)c3ccco3)O[C@@H]3O[C@@]4(C)CC[C@@H]1[C@]32OO4 (stereo not given in full)" system="Leishmania donovani" measurement_qualifier=< result_value=4.00
compound="C[C@H]1[C@H](OC(=O)CCC(=O)O)O[C@@H]2O[C@@]3(C)CC[C@H]4[C@H](C)CC[C@@H]1[C@@]24OO3 [SODIUM ARESUNATE]" system="Leishmania donovani" measurement_qualifier== result_value=4.10
compound="Cc1csc(C(=O)OCC2(C)O[C@@H]3O[C@@]4(C)CC[C@H]5[C@H](C)CC[C@@H]2[C@@]35OO4)c1 (stereo not given in full)" system="Leishmania donovani" measurement_qualifier== result_value=5.19
compound="C[C@@H]1CC[C@H]2C(C)(COC(=O)c3ccc(-c4ccccc4)cc3)O[C@@H]3O[C@@]4(C)CC[C@@H]1[C@]32OO4 (stereo not given in full)" system="Leishmania donovani" measurement_qualifier== result_value=5.55
compound="COc1ccc2nc3cc(Cl)ccc3c(N3CCNC(C)C3)c2c1 (stereo not given)" system="Leishmania donovani" measurement_qualifier== result_value=5.45
compound="C[C@@H]1CC[C@H]2C(C)(COC(=O)CCc3ccccc3)O[C@@H]3O[C@@]4(C)CC[C@@H]1[C@]32OO4 (stereo not given in full)" system="Leishmania donovani" measurement_qualifier== result_value=4.61
